system: HepG2; test: cytotoxicity call (relative viability < 0.9); conditions: 10 µM
The campaign covered roughly 39,000 compounds. About 3,300 (8.5%) were called active. The list comes from a sample in which actives are over-represented; it also holds close analogues and randomly drawn compounds.
experimental_readout: cytotoxicity call

Illustrative cases are given below, each with its answer.
INSERT INTO assay_data (compound, result) VALUES
  ('C[C@H](CO)N1C[C@H](C)[C@H](CN(C)S(=O)(=O)c2ccc(Cl)cc2)Oc2ccc(NC(=O)CCN3CCOCC3)cc2C1=O', 'inactive'),
  ('COc1ccc(CN(C)C[C@H]2OCCCC[C@@H](C)Oc3ccc(NS(=O)(=O)c4ccc(C)cc4)cc3C(=O)N([C@@H](C)CO)C[C@@H]2C)cc1', 'inactive'),
  ('CC(C)NC(=O)N(C)C[C@H]1Oc2ccc(NC(=O)CCN3CCOCC3)cc2C(=O)N([C@H](C)CO)C[C@H]1C', 'inactive'),
  ('O=C(CCc1ccc(O)cc1)c1c(O)c([C@@H]2O[C@H](CO)[C@@H](O)[C@H](O)[C@H]2O)c(O)c([C@@H]2O[C@H](CO)[C@@H](O)[C@H](O)[C@H]2O)c1O', 'inactive'),
  ('CC(=O)N[C@H]1[C@H](O[C@@H]2[C@@H](O)[C@H](C)O[C@@H](Oc3ccc4c(=O)c(-c5ccc(O)cc5)coc4c3)[C@@H]2O)O[C@H](CO)[C@@H](O[C@@H]2O[C@@H](C)[C@H](O)[C@@H](O)[C@H]2O)[C@@H]1O', 'inactive'),
  ('CCC(CO)NCCNC(CC)CO.Cl.Cl (configuration not stated)', 'inactive');

Consider the additional compound presented here.
Record CO[C@H](CN(C)S(=O)(=O)c1ccc(Cl)cc1)[C@@H](C)CN([C@@H](C)CO)S(=O)(=O)c1cccc(Cl)c1 , field cytotoxicity call: inactive

----------
test system: HepG2; assay: cytotoxicity call (relative viability < 0.9); conditions: 10 µM
Among all 39,000 compounds or so, about 3,300 (8.5%) were called active. The entries come from a sample that favours actives as a whole.
Allowed answers: t = active, f = inactive

INSERT INTO assay_data (structure_notation, label_class) VALUES
  ('COc1cccc(S(=O)(=O)Nc2ccc3c(c2)C(=O)N(C)C[C@@H](OC)[C@@H](C)CN(C(=O)Cc2cccnc2)[C@@H](C)CO3)c1', 'f'),
  ('Cc1ccc(S(=O)(=O)N(C)C[C@@H]2Oc3c(NC(=O)Nc4ccc(C(F)(F)F)cc4)cccc3C(=O)N([C@H](C)CO)C[C@H]2C)cc1', 'f');

Attention now shifts to the item below.
Incoming: # lookup: test call for C[C@@H]1CCCCO[C@@H](CN(C)C(=O)Nc2ccc3c(c2)OCO3)[C@@H](C)CN([C@H](C)CO)C(=O)c2cc(NS(=O)(=O)c3ccc(F)cc3)ccc2O1
Outgoing: f

----------
system: HepG2; experiment: cytotoxicity call (relative viability < 0.9); conditions: 10 µM
Screen size: about 39,000 compounds; about 3,300 (8.5%) were called active. The list comes from a sample in which actives are over-represented; it also holds close analogues and randomly drawn compounds.
Assign a class; possible classes are label 1 = active, label 0 = inactive

INSERT INTO results (structure_notation, target_entity, label_class) VALUES
  ('COc1ccc(NC(=O)Nc2ccc3c(c2)C(=O)N([C@H](C)CO)C[C@H](C)[C@@H](CN(C)Cc2ccc(Cl)c(Cl)c2)OCCCC[C@@H](C)O3)cc1', 'HepG2', 'label 0');

Now look at this entry.
Incoming: Call for entry COc1ccc(NC(=O)Nc2ccc3c(c2)C(=O)N([C@@H](C)CO)C[C@@H](C)[C@@H](CN(C)Cc2ccc(Cl)c(Cl)c2)OCCCC[C@@H](C)O3)cc1 :
Outgoing: label 1
